Recorded interaction score by entry
Target: T1, 4H3162-bA
T1 chain: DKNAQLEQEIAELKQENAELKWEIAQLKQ
Experiment: two-hybrid library CCNG1;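 note: natural log of median RNA to DNA barcode read ratio; higher means stronger binding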
measured-quantity: interaction score

[[record]]
binder = "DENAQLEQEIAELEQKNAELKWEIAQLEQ [4H1081-bA]"
measured_quantity = "interaction score"
reported_measurement = -0.581

[[record]]
binder = "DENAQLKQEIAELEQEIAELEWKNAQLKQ [4H1544-bA]"
measured_quantity = "interaction score"
reported_measurement = 0.788

[[record]]
binder = "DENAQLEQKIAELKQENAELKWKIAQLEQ [4H1373-bA]"
measured_quantity = "interaction score"
reported_measurement = -0.314

[[record]]
binder = "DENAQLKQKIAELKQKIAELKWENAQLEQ [4H1899-bA]"
measured_quantity = "interaction score"
reported_measurement = -1.28

[[record]]
binder = "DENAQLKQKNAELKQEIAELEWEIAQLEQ [4H1985-bA]"
measured_quantity = "interaction score"
reported_measurement = -1.66

[[record]]
binder = "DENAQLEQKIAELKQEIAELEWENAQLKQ [4H1348-bA]"
measured_quantity = "interaction score"
reported_measurement = -0.332

[[record]]
binder = "DKNAQLEQEIAELKQENAELKWEIAQLKQ [4H3162-bA]"
measured_quantity = "interaction score"
reported_measurement = 1.11

[[record]]
binder = "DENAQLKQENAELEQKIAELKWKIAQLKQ [4H1710-bA]"
measured_quantity = "interaction score"
reported_measurement = -0.713

